- Experimental target: FAR-RXRα complex (rat FAR and human RXRα) (Rattus norvegicus, UniProt Q62735, D356M/DEL339-355/E357R/INS337LPDTQTCWKKEFERAAS)
- Construct: expressed in transfected cells; host or cells: CV-1 cells, CMV-driven expression vectors
- Sequence (Q62735 1-469): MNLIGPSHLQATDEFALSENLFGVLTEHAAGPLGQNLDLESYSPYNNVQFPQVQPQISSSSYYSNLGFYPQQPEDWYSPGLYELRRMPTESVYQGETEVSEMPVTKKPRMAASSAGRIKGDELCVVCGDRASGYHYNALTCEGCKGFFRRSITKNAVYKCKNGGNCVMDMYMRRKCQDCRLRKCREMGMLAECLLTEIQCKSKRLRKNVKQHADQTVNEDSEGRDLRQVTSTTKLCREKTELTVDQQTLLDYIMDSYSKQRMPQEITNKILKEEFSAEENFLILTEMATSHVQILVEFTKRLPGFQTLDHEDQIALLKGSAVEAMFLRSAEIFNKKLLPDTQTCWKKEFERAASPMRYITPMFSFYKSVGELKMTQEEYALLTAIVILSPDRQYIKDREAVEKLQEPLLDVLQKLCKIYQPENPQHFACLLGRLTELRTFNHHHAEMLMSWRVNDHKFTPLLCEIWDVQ
- Sequence (P19793 1-462 partner): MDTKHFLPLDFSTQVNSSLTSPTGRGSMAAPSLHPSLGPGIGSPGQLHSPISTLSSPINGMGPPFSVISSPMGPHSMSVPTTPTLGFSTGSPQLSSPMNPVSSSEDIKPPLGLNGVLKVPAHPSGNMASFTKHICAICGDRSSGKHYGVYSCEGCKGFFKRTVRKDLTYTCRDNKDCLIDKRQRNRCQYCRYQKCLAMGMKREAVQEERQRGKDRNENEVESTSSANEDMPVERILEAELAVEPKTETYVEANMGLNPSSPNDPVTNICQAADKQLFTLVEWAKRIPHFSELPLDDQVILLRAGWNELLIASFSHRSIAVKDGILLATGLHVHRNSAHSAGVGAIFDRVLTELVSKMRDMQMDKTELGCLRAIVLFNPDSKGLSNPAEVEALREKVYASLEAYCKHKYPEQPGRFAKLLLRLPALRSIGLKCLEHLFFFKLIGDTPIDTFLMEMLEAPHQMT
- Assay details: hsp27-EcRE×5 MTV-luciferase reporter cotransfection in CV-1 cells expressing FAR and RXRα
- Type: cell-based
- Experimental parameters: 50 μM; FIG. 6A
Endpoint: activation of FAR-RXRα (in words)

compound="CC(O)(CCO)CC(=O)O (stereo not shown) [mevalonate]" value_observed="little or no activation"
compound=CC(C)=CCC/C(C)=C/CO value_observed="little or no activation"
compound="C[C@H](CCC1OC1(C)C)[C@H]1CC[C@H]2[C@@H]3CC=C4C[C@@H](O)CC[C@]4(C)[C@H]3CC[C@]12C (stereo partly shown)" value_observed="little or no activation"
compound=CC(=O)[C@H]1CC[C@H]2[C@@H]3CC=C4C[C@@H](O)CC[C@]4(C)[C@H]3CC[C@]12C value_observed="little or no activation"
compound=CC(C)=CCCC(C)=CCCC(C)=CC(=O)O value_observed="little or no activation"
compound=CC(C)=CCCC(C)=CCCC(C)=CC=O value_observed="weaker activity"
compound=CC(C)=CCC/C(C)=C/CC/C(C)=C/CC/C(C)=C/CO value_observed="weaker activity"
compound=CC(C)=CCC/C(C)=C/CC/C(C)=C/CC/C=C(\C)CC/C=C(\C)CCC=C(C)C value_observed="little or no activation"
compound="CC(C)=CCC/C(C)=C/CC/C(C)=C/CC/C=C(\\C)CC/C=C(\\C)CCC1OC1(C)C (stereo not shown) [squalene epoxide]" value_observed="little or no activation"
compound=CC(C)=CCC[C@@H](C)[C@H]1CC[C@@]2(C)C3=C(CC[C@]12C)[C@@]1(C)CC[C@H](O)C(C)(C)[C@@H]1CC3 value_observed="little or no activation"
